Reference for the values: PubChem BioAssay (NCI)

tested on: U251 CNS; test: NCI-60 one-dose screen, 48 h; details: 10 µM unless noted
The panel holds about 83,000 compounds, 20% with a hit somewhere; the sample as a whole holds those more often. Calls of active or inactive are those of the source. The calls were made as follows: active = growth percent below 10; inactive = the rest.
I would appreciate it if you answered using one of these outcomes: active, inactive

Compound: CCCCCCOc1ccc(/C=N/Nc2cc(C)nc3ccc(Br)cc23)cc1
Assigned Label: active
//
Compound: Cn1/c(=N/NC(N)=S)ccc2ccccc21
Assigned Label: inactive
//
Compound: CN(C)CCCn1c2c(c3ccc(-c4ccn[nH]4)cc3c1=O)C(=O)c1ccccc1-2
Assigned Label: inactive
//
Compound: Cn1ncc2c(Nc3ccccc3Cl)nc(Cl)nc21
Assigned Label: inactive
//
Compound: COc1ccc(-c2c(-c3ccccc3)noc2N)cc1OC
Assigned Label: inactive
//
Compound: C/C(=C(/c1ccccc1)c1ccc(OCC(O)CNCCN2CCOCC2)cc1)c1ccccc1 (stereo not drawn)
Assigned Label: inactive

Next item in the queue.
Prompt line: Each compound tested received a call. Report the one for CC(C)Cc1ccc(C(C)C(=O)NCc2ccc(Cn3c(=O)sn(-c4ccc(Cl)cc4)c3=O)cc2)cc1 (stereo not drawn) .
Response line: inactive
